Please go through the items and note down their Kd.
Target: T1, human GPC3 (human, UniProt P51654 25-563)
T1 construct: range 25-563; soluble analyte; also called soluble human GPC3; glypican 3
T1 sequence (P51654 25-563 limits assumed): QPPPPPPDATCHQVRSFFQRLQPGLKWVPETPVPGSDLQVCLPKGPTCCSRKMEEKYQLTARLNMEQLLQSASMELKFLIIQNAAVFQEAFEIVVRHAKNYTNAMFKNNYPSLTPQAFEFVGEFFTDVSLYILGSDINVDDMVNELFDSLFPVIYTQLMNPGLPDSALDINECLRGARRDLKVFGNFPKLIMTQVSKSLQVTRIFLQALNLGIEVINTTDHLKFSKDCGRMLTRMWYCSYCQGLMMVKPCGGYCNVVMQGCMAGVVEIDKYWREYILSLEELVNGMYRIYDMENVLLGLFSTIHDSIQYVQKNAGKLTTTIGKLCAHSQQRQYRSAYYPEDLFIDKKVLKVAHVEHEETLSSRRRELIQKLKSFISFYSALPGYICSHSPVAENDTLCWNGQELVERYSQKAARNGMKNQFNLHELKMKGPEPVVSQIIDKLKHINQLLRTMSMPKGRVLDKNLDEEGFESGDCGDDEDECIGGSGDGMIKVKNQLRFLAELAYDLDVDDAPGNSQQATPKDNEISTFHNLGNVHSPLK
Test: SPR
The answer is to be given in nM; state only the numeric part.

*Q* Which measured Kd value corresponds to H0610-G1dh/none-Hi-Kn010G3/L0149-k0 (antibody, V domains shown, one-arm) VH: QVQLVQSGAEVKKPGASVKVSCKASGYTFTDYEMHWIRQPPGQGLEWIGAIDGKTPDTAYSQKFKGRVTLTADKSTSTAYMELSSLTSEDTAVYYCTRFYSYTYWGQGTLVTVSS VL: DIVMTQSPLSLPVTPGEPASISCRSSQSLVHSNRNTYLHWYQQKPGQAPRLLIYKVSNRFSGVPDRFSGSGSGTDFTLKISRVEAEDVGVYYCAQGTQVPYTFGQGTKLEIK ?
*A* 2.16

*Q* Recorded Kd of GCH055-G1dh/none-Hi-Kn010G3/L0215-k0 (antibody, V domains shown, one-arm) VH: QVQLVQSGAEVKKPGASVTVSCKASGYTFTDYEMHWIRQPPGEGLEWIGAIDGETPDTAYSDKFKGRVTLTADKSTSTAYMELSSLTSEDTAVYYCTRFYSYTYWGQGTLVTVSS VL: DIVMTQSPLSLPVTPGEPASISCRSSQPPVHSNRNTYIHWYQQKPGQAPRLLIYKVSNRFSGVPDRFSGSGSGTDFTLKISRVEAEDVGVYYCGQGTQVPYTFGQGTKLEIK , please.
*A* 1.52

*Q* Reported Kd, binder GCH043-G1dh/none-Hi-Kn010G3/L0000-k0 (antibody, V domains shown, one-arm) VH: QVQLVQSGAEVKKPGASVKVSCKASGYTFTDYEMHWIRQPPGQGLEWIGAIDGKTPDTAYSQKFKGRVTLTADKSTSTAYMELSSLTSEDEAVYYCTRFYSYTYWGQGTLVTVSS VL: DIVMTQSPLSLPVTPGEPASISCRSSQSLVHSNRNTYLHWYQQKPGQAPRLLIYKVSNRFSGVPDRFSGSGSGTDFTLKISRVEAEDVGVYYCGQGTQVPYTFGQGTKLEIKR : ____
*A* 3.74

*Q* Can you look up the measured Kd of H0610-G1dh/none-Hi-Kn010G3/L0140-k0 (antibody, V domains shown, one-arm) VH: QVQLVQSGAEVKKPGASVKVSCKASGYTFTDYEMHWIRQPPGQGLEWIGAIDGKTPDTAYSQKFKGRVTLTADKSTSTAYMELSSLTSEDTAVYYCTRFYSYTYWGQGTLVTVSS VL: DIVMTQSPLSLPVTPGEPASISCRSSQSLVHSNRNTYLHWYQQKPGQAPRLLIYKVSNRFLGVPDRFSGSGSGTDFTLKISRVEAEDVGVYYCGQGTQVPYTFGQGTKLEIK for me?
*A* 3.38

*Q* What measured Kd goes with H0610-G1dh/none-Hi-Kn010G3/L0043-k0 (antibody, V domains shown, one-arm) VH: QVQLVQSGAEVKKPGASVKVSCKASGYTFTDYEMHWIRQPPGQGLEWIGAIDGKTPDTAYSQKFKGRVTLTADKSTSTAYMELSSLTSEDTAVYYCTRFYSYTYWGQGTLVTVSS VL: DIVMTQSPLSLPVTPGEPASISCRSSQSLVHNNRNTYLHWYQQKPGQAPRLLIYKVSNRFSGVPDRFSGSGSGTDFTLKISRVEAEDVGVYYCGQGTQVPYTFGQGTKLEIK ?
*A* 5.14
